# target.of.assay: Claudin 18.2 (CLDN18.2), expressed on CHOS-CLDN 18.2 / HEK293-CLDN 18.2 / HCC827-CLDN 18.2 cells (human, UniProt P56856-2 1-261)
# measurement.notes: cell-based or functional assay
measurement.label: Killing percentage, ADCC (PBMC, HEK293-CLDN18.2 cells), 0.000512 µg/ml (%)

binder	unit.abbrev	meas.value
QP14451440 (antibody, human IgG1, kappa, V domains shown, Humanized from QP192193; also called QP14401445) VH: QVQLVQSGAEVKKPGASVKVSCKASGYAFSSYWMNWVRQAPGQGLEWIGQIYPGNGDTTYNGKFKGRVTMTADKSTSTVYMELSSLRSEDTAVYFCARFVKGNAMDYWGQGTLVTVSS VL: DIVMTQSPDSLAVSLGERATISCKSSQSLLNSGNQKNYLTWYQQKPGQPPKLLIYWASTRESGVPDRFSGSGSGTDFTLTISSLQAEDVAVYYCQNAYSYPFTFGQGTKLEIKR	%	10
QP14631461 (antibody, human IgG1, kappa, V domains shown, also called QP14611463) VH: QVQLVQSGAEVKKPGASVKVSCKASGYTFTSYIMHWVRQAPGQGLEWMGYINPYNDGTKYNEKFKGRVTMTRDTSTSTVYMELSSLRSEDTAVYYCARLGFTTRNAMDYWGQGTLVTVSS VL: DIVMTQSPDSLAVSLGERATINCKSSQSLLNSGNQKNYLAWYQQKPGQPPKLLIYGASTRESGVPDRFTGSGSGTDFTLTISSLQAEDVAVYYCQNDHSYPFTFGQGTKLEIKR	%	5.65
QP024025 (antibody, human IgG1, V domains shown, also called IMAB362; 175D10(IMAB362)) VH: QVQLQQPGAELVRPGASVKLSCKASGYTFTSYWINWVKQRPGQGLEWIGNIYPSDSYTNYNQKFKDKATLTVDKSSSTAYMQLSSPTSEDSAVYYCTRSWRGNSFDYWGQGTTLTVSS VL: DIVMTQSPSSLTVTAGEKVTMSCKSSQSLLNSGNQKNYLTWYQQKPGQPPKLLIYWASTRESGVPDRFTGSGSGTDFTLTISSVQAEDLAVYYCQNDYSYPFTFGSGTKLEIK	%	1.7
QP14371433 (antibody, human IgG1, kappa, V domains shown, Humanized from QP190191; also called QP14331437) VH: EVQLVESGGGLVKPGGSLRLSCAASGFTFSNYAMSWVRQAPGKGLEWVASIISGGRTYYLDSEKGRFTISRDNAKNSLYLQMNSLRAEDTAVYYCTRIYYGNSFDYWGQGTLVTVSS VL: DIVMTQSPDSLAVSLGERATINCKSSQSLLNSGNQKNYLTWYQQKPGQPPKLLIYWASTRESGVPDRFSGSGSGTDFTLTISSLQAEDVAVYYCQNDYSYPFTFGQGTKLEIKR	%	10.5
